The measured values listed here are drawn from paper PMC11269473.

- TARGET DESC: recombinant human MAO-B (Homo sapiens)
- Construct: purchased Sigma-Aldrich; host or cells: insect cells (microsomes)
- Sequence (P27338 1-520): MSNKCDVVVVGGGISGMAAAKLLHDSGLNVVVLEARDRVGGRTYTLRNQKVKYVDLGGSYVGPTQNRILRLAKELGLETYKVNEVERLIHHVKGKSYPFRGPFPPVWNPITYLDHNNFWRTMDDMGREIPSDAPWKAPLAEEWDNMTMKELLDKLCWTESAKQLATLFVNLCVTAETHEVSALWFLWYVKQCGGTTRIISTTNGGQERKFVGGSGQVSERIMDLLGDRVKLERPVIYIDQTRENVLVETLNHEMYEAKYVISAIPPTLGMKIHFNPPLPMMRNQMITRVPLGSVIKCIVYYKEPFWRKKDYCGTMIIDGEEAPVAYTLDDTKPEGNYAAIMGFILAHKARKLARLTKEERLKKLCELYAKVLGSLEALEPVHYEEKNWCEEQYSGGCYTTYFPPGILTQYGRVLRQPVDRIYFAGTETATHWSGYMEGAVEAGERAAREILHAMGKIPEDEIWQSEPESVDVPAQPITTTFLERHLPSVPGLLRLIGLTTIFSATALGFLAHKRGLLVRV
- TEST NAME: Lineweaver–Burk plots / mode of MAO-B inhibition and Ki
- Type: biochemical
- CONDITION CONTEXT: global (shared) fitting of the inhibition data; read-out: Ki, MAO-B, global (shared) fitting to the Michaelis–Menten equation
READOUT TYPE: Ki
The reply must contain the numeric value and, after it, the unit.

Tell me the measured Ki of N#Cc1ccc(-c2onc3c(Cl)cc(Cl)cc23)cc1 [Compound 7a] , please. 0.01 µM

###

- TARGET DESC: recombinant human MAO-B (Homo sapiens)
- Construct: purchased Sigma-Aldrich; host or cells: insect cells (microsomes)
- TEST NAME: MAO-B inhibition, IC50 determination with kynuramine as substrate (fluorescence of 4-hydroxyquinoline)
- Type: biochemical
- CONDITION CONTEXT: recombinant human MAO-B, 50 µM kynuramine, mean ± SD of triplicate; NI = no inhibition observed at 100 µM
Each entry below carries its reported IC50.
Number only, in µM; omit the unit.

- Cc1nc(-c2cc3noc(-c4ccccc4)c3cc2Cl)no1: 3.55

Tell me the measured IC50 of "Cc1nc(-c2cc3noc(-c4ccc(C#N)cc4)c3cc2Cl)no1" , please. 0.139

Tell me the measured IC50 of "N#Cc1ccc(-c2onc3c(Cl)cc(Cl)cc23)cc1" , please. 0.017

Tell me the measured IC50 of "COc1ccc(-c2onc3ccc(Cl)cc23)cc1" , please. 2.34

Tell me the measured IC50 of Clc1ccc2noc(-c3ccccc3)c2c1 [Compound 3j, 5-Chloro-3-phenylbenzo[c]isoxazole] , please. 4.43

Tell me the measured IC50 of "c1ccc(-c2onc3ccc(C4OCCO4)cc23)cc1" , please. 27.3

Tell me the measured IC50 of Cc1ccc(-c2onc3ccc(Cl)cc23)cc1 [Compound 3c, 5-Chloro-3-(p-tolyl)benzo[c]isoxazole] , please. 2.63

Tell me the measured IC50 of "CC1(c2ccc3noc(-c4cccc(Cl)c4)c3c2)OCCO1" , please. 25.1

###

READOUT TYPE: melting point

• Cc1ccc(-c2onc3ccc(I)cc23)cc1 [Compound 3i, 5-Iodo-3-(p-tolyl)benzo[c]isoxazole] = 109 to 110 °C
• C(#Cc1ccc2noc(-c3ccccc3)c2c1)c1ccccc1 = 143 to 144 °C
• Cc1nc(-c2cc3noc(-c4ccccc4)c3cc2Cl)no1 = 171 to 172 °C
• c1ccc(-c2onc3ccc(Oc4ccc5noc(-c6ccccc6)c5c4)cc23)cc1 [Compound 5, 5,5'-Oxybis(3-phenylbenzo[c]isoxazole)] = 190 to 192 °C
• CC1(c2ccc3noc(-c4cccc(Cl)c4)c3c2)OCCO1 = 175 to 177 °C
• c1ccc(-c2onc3ccc(C4OCCO4)cc23)cc1 = 137 to 138 °C
• Brc1ccc2noc(-c3ccccc3)c2c1 [Compound 3g, 5-Bromo-3-phenylbenzo[c]isoxazole] = 116 to 118 °C
• COc1ccc(-c2onc3ccc(I)cc23)cc1 = 112 to 114 °C
• Cc1nc(-c2cc3noc(-c4ccc(C#N)cc4)c3cc2Cl)no1 = 257 to 258 °C
• COc1ccc(-c2onc3ccc(Cl)cc23)cc1 = 174 °C

Tell me the measured melting point of "Clc1ccc2noc(-c3ccc(Br)cc3)c2c1" , please. 230 to 232 °C

Tell me the measured melting point of Cc1ccc(-c2onc3ccc(Cl)cc23)cc1 [Compound 3c, 5-Chloro-3-(p-tolyl)benzo[c]isoxazole] , please. 136 to 138 °C
